- testName: ATG_ERE_CIS: Attagene CIS-FACTORIAL HepG2 Assay for Estrogen Response Element (ERE) (AID 2282940)
- experimentalContext: HepG2 ERE cis-reporter, Attagene RNA transcript; actives raise or lower the signal
Activity calls are given as the source filed them. How the source made its calls: active means hit-call score of the fitted dose curve at least 0.9, where 1 is the maximum; inactive means score below 0.9.
Outcome codes: True for active, False for inactive

- compound: "O=S(=O)(O)c1ccc(Nc2nc(Nc3ccc(C=Cc4ccc(Nc5nc(Nc6ccc(S(=O)(=O)O)cc6)nc(N(CCO)CCO)n5)cc4S(=O)(=O)O)c(S(=O)(=O)O)c3)nc(N(CCO)CCO)n2)cc1"
  answerLabel: "False"
- compound: "O=C1CCCCC1C1CCCCC1 (stereo not given)"
  answerLabel: "False"
- compound: "CCCCCCCCCCCCc1ccc(O)cc1"
  answerLabel: "True"
- compound: "CCCC(CC)c1ccccc1 (stereo not given)"
  answerLabel: "True"
- compound: "O=S(=O)(O)c1ccc(N=Nc2c(O)ccc3ccccc23)cc1"
  answerLabel: "True"
- compound: "Cc1ccc(S(=O)(=O)N=C=O)cc1"
  answerLabel: "False"
- compound: "CCCCCCCOC(=O)c1ccc(O)cc1"
  answerLabel: "True"
- compound: "CCOC(=O)c1ccc(C)cc1"
  answerLabel: "False"
- compound: "CO[Si](C)(C)OC"
  answerLabel: "False"
- compound: "COC(=O)c1ccc(C(=O)OC)c(C(=O)OC)c1"
  answerLabel: "False"
- compound: "N#Cc1ccc(C2CCCc3cncn32)cc1 (stereo not given)"
  answerLabel: "True"
- compound: "C=CCCCCCCCCC=O"
  answerLabel: "True"
- compound: "CC1(C)[C@@H]2CC[C@@]1(C)C(=O)C2"
  answerLabel: "False"
- compound: "CCC1COC(=O)O1 (stereo not given)"
  answerLabel: "False"
- compound: "C=C(C)C1CC=C(C)CC1 (stereo not given)"
  answerLabel: "False"
- compound: "C=Cc1ccc(OC(C)=O)cc1"
  answerLabel: "True"
- compound: "Nc1cccc(N)n1"
  answerLabel: "False"
- compound: "CCOC(=O)c1ccccc1C"
  answerLabel: "False"
- compound: "C[Si](C)(C)N[Si](C)(C)C"
  answerLabel: "False"
- compound: "COc1ccc(C(=O)/C(Br)=C\\C(=O)O)cc1"
  answerLabel: "False"
